- TEST_SUMMARY: Inhibition of GST-tagged recombinant human cytomegalovirus DNA polymerase catalytic subunit UL54 expressed in baculovirus infected insect Sf21 cells assessed as incorporation of biotin-tagged dUTP after 30 mins by LANCE TR-FRET assay
- Set-up: species or system Human betaherpesvirus 5
MEASURE: IC50 (nM)
Respond with the bare value in nM.

- SMILES_CODE: "CN(CC(=O)O)c1ccnc2c1cc(C(=O)NCc1ccc(Cl)cc1)c(=O)n2CC(=O)N1CC(C)(C)C1"
  MEASURE: "IC50"
  UNIT: "nM"
  READING: 50
- SMILES_CODE: "COc1cc(N)nc2c1cc(C(=O)NCc1ccc(Cl)cc1)c(=O)n2CC(=O)N(C)CC1(CO)COC1"
  MEASURE: "IC50"
  UNIT: "nM"
  READING: 22

Next up:
IN: I have this compound here, CC1(C)CN(C(=O)Cn2c(=O)c(C(=O)NCc3ccc(Cl)cc3)cc3cc(-c4nn[nH]n4)cnc32)C1 , and I need its recorded IC50.
OUT: 30
